# Subject of test: FGFR1 (UniProt P11362)
# Sequence (P11362 whole entry, looked up): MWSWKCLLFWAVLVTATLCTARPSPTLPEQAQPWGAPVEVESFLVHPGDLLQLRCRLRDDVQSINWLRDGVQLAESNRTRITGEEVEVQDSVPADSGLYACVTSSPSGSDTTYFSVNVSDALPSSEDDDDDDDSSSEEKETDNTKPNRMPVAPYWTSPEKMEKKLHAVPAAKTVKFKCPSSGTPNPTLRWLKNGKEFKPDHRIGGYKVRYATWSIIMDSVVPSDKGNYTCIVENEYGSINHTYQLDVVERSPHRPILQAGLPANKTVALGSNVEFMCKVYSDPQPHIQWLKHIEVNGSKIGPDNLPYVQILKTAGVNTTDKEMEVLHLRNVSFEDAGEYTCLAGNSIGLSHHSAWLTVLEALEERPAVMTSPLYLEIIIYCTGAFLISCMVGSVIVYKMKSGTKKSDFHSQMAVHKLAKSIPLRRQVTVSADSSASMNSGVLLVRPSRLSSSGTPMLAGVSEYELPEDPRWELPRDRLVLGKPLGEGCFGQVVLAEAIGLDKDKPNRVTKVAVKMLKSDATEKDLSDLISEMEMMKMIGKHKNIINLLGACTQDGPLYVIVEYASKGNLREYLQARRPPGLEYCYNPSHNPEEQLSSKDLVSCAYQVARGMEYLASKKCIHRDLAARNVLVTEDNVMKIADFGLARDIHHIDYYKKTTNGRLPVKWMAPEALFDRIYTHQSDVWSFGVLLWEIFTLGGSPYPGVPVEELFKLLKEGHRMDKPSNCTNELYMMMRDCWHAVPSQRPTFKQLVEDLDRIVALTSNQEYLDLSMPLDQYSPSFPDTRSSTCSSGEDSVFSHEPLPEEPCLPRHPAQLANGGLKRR
# Test name: phosphorylation enrichment, bacterial display (enrichment ratio); higher = better substrate or ligand; peptides without Tyr show the background;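 further: 11-residue human phosphosite peptides and single-mutation variants displayed on the E. coli surface, counted by deep sequencing, each peptide's frequency after selection divided by its frequency in the unselected input library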;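 further: frequency after pTyr selection over input frequency; kinase dosed for 20-30% of maximal phosphorylation in three min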
phosphorylation enrichment overview
Value kind: phosphorylation enrichment

KAVLHYKHQNQ [MTOR_Y1804_E1799K]; 0.427
DYYDLYGGKKF [PTPN11_Y66_E69K]; 11.5
EAGKVYLKAAM [CBFB_Y96_P100A]; 0.674
FKDFFYCWNTF [AICDA_Y146_YF]; 0.749
QRIHDYFEHRF [HCN4_Y554_YF]; 5.67
MKSIKYMDKEI [CCDC60_Y41]; 0.452
RFLTRYIFNRE [HLA-DQB1_Y62_V59L_YF]; 0.408
LTSVKYLLSAT [GSDMC_Y26_P23S]; 0.482
PYSNSYENSLI [EPOR_Y489_P488S]; 1.04

====

# Subject of test: Jak2 (UniProt O60674)
# Sequence (O60674 whole entry, looked up): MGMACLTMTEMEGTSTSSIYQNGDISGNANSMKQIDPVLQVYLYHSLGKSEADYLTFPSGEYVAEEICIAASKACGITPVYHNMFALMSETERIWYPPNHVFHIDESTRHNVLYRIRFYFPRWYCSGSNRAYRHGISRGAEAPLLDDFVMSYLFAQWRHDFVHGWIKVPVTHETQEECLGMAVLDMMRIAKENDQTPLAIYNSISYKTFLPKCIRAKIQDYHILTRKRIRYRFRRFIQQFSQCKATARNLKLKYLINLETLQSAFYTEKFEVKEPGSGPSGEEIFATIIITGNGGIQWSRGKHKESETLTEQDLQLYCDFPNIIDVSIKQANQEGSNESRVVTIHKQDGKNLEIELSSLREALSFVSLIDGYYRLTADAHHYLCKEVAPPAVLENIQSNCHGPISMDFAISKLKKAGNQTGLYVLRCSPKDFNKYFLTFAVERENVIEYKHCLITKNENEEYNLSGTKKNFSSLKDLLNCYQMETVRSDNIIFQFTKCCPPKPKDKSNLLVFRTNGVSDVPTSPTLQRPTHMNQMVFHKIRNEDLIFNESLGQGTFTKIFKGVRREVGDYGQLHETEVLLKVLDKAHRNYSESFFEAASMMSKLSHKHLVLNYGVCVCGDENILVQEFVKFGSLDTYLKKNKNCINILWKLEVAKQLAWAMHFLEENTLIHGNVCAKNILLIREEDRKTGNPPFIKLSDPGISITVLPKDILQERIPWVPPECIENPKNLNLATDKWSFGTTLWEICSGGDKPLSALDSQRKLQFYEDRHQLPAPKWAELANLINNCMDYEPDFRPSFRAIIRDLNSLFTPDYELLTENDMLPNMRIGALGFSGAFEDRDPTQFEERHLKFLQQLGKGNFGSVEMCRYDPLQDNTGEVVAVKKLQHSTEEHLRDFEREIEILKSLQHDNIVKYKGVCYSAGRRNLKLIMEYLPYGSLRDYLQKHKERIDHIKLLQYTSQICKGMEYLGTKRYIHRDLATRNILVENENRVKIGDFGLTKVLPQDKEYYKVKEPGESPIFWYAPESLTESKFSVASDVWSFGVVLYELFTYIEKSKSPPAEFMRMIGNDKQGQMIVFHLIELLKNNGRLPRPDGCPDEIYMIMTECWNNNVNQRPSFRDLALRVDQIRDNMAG
# Test name: phosphorylation enrichment, bacterial display (enrichment ratio); higher = better substrate or ligand; peptides without Tyr show the background
// bucketize phosphorylation enrichment: bucket A (below 0.8), bucket B (0.8 to below 1), bucket C (1 or more)

ISNATYKEIGL [FLT1_Y199]; bucket A
KREPQYSSHSS [SIPA1L3_Y1265_G1261R]; bucket A
QDEHGYISWCF [HSPB1_Y133_R136W]; bucket C
CEAMEYPESKQ [BTK_Y511_L512P]; bucket C
IHFPPYTDWNQ [ALDH3B2_Y365_YF]; bucket B
FYDANCDGKEY [MAPRE2_Y162_Y162C]; bucket C
PESILYRKFTT [NTRK1_Y701]; bucket C
IFHENYNAGTF [CFI_Y421_YF]; bucket A
VPLLEYYWDIF [CDAN1_Y712_R714W]; bucket C
PPKFFDTRKLL [CYBB_Y41_Y41D]; bucket A
LKKKQYTSIHH [APP_Y728]; bucket B
RGDCMYASLLG [AR_Y269_P271S]; bucket C
TESNNYIFKTL [FAM83B_Y637_YF]; bucket B
FSVDGYDSSVR [KCNQ1_Y461]; bucket A
IFRASYFRRGD [LTK_Y676_YF]; bucket A
DVLVEYQGEGR [GNS_Y416]; bucket B
TACNPYKPPGP; bucket A
ERLLDYTRTVQ [INPP5E_Y439]; bucket C
RGVTRYIFNRE [HLA-DQB1_Y62_Y58G_YF]; bucket C
RELSWYRGQRP [HESX1_Y106_R109Q]; bucket B
HHTNEYEYDEL [TGM1_Y134_D132N]; bucket C
LTKQEYDEAGP [ACTA1_Y364_I359L]; bucket C
RIDPDYMGRVR [IGSF9_Y81_V82M]; bucket A
ELTAKYLNFFR [P3H4_Y181_Q186R_YF]; bucket A
EDASEYFENFI [PARP4_Y214_F215Y_YF]; bucket C
IDPFTYTPFGS [CYP3A4_Y432_I431T_YF]; bucket A
LLQAEYWHDPI [PPT1_Y185_V181L]; bucket C
GIVEDYRPPLF [ACVRL1_Y421_F425L_YF]; bucket A
KLQQWYREHRS [GPI_Y17]; bucket A
KGIDRYNPENL [EIF3K_Y21]; bucket A
MDNQEYKDAFT [BRDT_Y331_K336T_YF]; bucket C
GSSSSYGQHGS [HRNR_Y517]; bucket A
DLTQDYEEWKR [ORC6_Y232]; bucket C
LEQGEYALRSH [HADHB_Y244_D242G]; bucket B
NMSRIYSTAKV [ACE_Y151]; bucket A
AGIVVYNIIGW [MYH7_Y588_D587V]; bucket C
LGRTRYQDVTG [MIPEP_Y510_H512D]; bucket B
DTLMEYLENPK [CYCS_Y68]; bucket C
